Each record here notes measured Papp at 5 h.
assay: in vitro; set-up: dose or concentration left out as unconfirmed; conditions: PAMPA, pH 7.4, PAMPA Pe;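 also: Phospholipid-membrane PAMPA, donor and acceptor in DPBS pH 7.4 with 5% DMSO, 37 °C for 5 h, compound in each well quantified by reverse-phase HPLC-MS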
Numbers only; they are read as ×10⁻⁶ cm/s.

// worked examples, Papp at 5 h included
INSERT INTO results (compound, testresult) VALUES
  ('CNC(=O)[C@H](CC(=O)O)NC(=O)[C@H](CC(C)C)NC(=O)[C@H](CC(C)C)NC(=O)[C@H](Cc1ccc(O)cc1)NC(=O)[C@]1(C)CCCC=CC[C@]2(CCCN2C(C)=O)C(=O)N[C@@H]([C@@H](C)O)C(=O)N[C@@H](CC(C)C)C(=O)N1 (single isomer, unassigned)', 1.4),
  ('CNC(=O)[C@H](CC(=O)O)NC(=O)[C@H](CCC(N)=O)NC(=O)[C@H](CC(C)C)NC(=O)[C@H](CC(C)C)NC(=O)[C@H](Cc1ccc(O)cc1)NC(=O)[C@]1(C)CCCC=CC[C@]2(CCCN2C(C)=O)C(=O)N[C@@H](C)C(=O)N[C@@H](CC(C)C)C(=O)N1 (single isomer, unassigned)', 1.4),
  ('CC(=O)N1CCC[C@]12CC=CCCC[C@@](C)(C(=O)N[C@@H](CCCNC(=N)N)C(=O)N[C@@H](CC(C)C)C(=O)N[C@@H](CC(C)C)C(=O)N[C@@H](Cc1c[nH]cn1)C(=O)N[C@@H](CC(=O)O)C(N)=O)NC(=O)[C@H](CC(C)C)NC(=O)[C@H](CC(C)C)NC2=O (single isomer, unassigned)', 0.5),
  ('CC(=O)CC(c1ccccc1)c1c(O)c2ccccc2oc1=O (stereo not shown) [Warfarin, reference compound]', 8.6);

// switching to the query compound
get_value(item= CC(=O)N1CCC[C@]12CC=CCCC[C@@](C)(C(=O)N[C@@H](CC(N)=O)C(=O)N[C@@H](CC(C)C)C(=O)N[C@@H](CC(C)C)C(=O)N[C@H](C(=O)N[C@@H](Cc1ccc(O)cc1)C(N)=O)[C@@H](C)O)NC(=O)[C@H](CC(C)C)NC(=O)[C@H](CCCCN)NC2=O (single isomer, unassigned) , readout=Papp at 5 h) returns 0.4

* * *

Each record here notes measured PAMPA Pe (text).
Starred links: 1 amine or outer side, 2 acyl side, 3 side chain; linkers in the order of their positions; H or OH if unused. Positions of bridges follow the written chain, without caps; N, C: chain ends. Non-standard residues stand in square brackets, D forms with d. Residues, ends and D or L forms follow the SMILES beside them. X1 = O=C([C@]1(CC=[*:3])CCCN1[*:1])[*:2]; S5 = C=CCCC[C@](C)(N)C(=O)O

INSERT INTO measurements (molecule, testresult) VALUES
  ('CNC(=O)[C@H](CC(=O)O)NC(=O)[C@H](CC(C)C)NC(=O)[C@H](CC(C)C)NC(=O)[C@H](Cc1ccc(O)cc1)NC(=O)[C@]1(C)CCCC=CC[C@]2(CCCN2C(C)=O)C(=O)N[C@@H](CC(C)C)C(=O)N[C@@H](CC(C)C)C(=O)N1 [PLL4-10, Ac-PL3-Leu-Leu-S5-Tyr-Leu-Leu-Asp-NHMe] (Ac-[X1]LL[S5]YLLD-NHMe; staple 1-4)', '0.3-0.7 ×10^−6 cm/sec');

// switching to the query molecule
get_value(item= CNC(=O)[C@H](CC(=O)O)NC(=O)[C@H](CC(C)C)NC(=O)[C@H](CC(C)C)NC(=O)[C@H](Cc1ccc(O)cc1)NC(=O)[C@H](CCCNC(=N)N)NC(=O)[C@]1(C)CCCC=CC[C@]2(CCCN2C(C)=O)C(=O)N[C@@H](C)C(=O)N[C@@H](CC(C)C)C(=O)N1 [PLL4-4] (Ac-[X1]AL[S5]RYLLD-NHMe; staple 1-4) , readout=PAMPA Pe (text)) returns 0.3-0.7 ×10^−6 cm/sec
